# EXPERIMENT: CCTE_Shafer_MEA_acute_burst_number: CCTE's Neural Acute Assay for Single-Electrode Bursts, Shafer Lab (AID 2284013)
Active and inactive are the calls of the source. Rule for the calls: active = hit-call score of the fitted dose curve at least 0.9, where 1 is the maximum; inactive = score below 0.9.
Classes to choose from: True (active), False (inactive)

Please review the following examples before continuing.
{"COMPOUND": "COCCOCCO", "CLASS_LABEL": "False"}
{"COMPOUND": "COP(=O)(CCC(=O)NCO)OC", "CLASS_LABEL": "False"}
{"COMPOUND": "Cc1ccc(N)cc1N", "CLASS_LABEL": "False"}
{"COMPOUND": "ClC(Cl)(Cl)c1ccccc1", "CLASS_LABEL": "False"}
{"COMPOUND": "CCOc1ccc(C(C)(C)COCc2cccc(Oc3ccccc3)c2)cc1", "CLASS_LABEL": "False"}
{"COMPOUND": "[N-]=[N+]=[N-]", "CLASS_LABEL": "False"}
{"COMPOUND": "CC(C)(C)c1ccccc1OP(=O)(Oc1ccccc1)Oc1ccccc1", "CLASS_LABEL": "True"}
{"COMPOUND": "CCOP(=S)(Oc1ccc([N+](=O)[O-])cc1)c1ccccc1 (configuration not stated)", "CLASS_LABEL": "False"}
{"COMPOUND": "ClC1=C(Cl)C2(Cl)C3C(Cl)C(Cl)CC3C1(Cl)C2(Cl)Cl (configuration not stated)", "CLASS_LABEL": "False"}
{"COMPOUND": "c1ccc2c(c1)Nc1ccccc1S2", "CLASS_LABEL": "True"}

Exercise: What classification did CCC1(c2ccccc2)C(=O)N=C(O)NC1=O (configuration not stated) end up with in this test?
Solution: False

Exercise: What classification did CC(Cl)(Cl)C(=O)O end up with in this test?
Solution: False

---

# EXPERIMENT: CCTE_Shafer_MEA_acute_per_network_burst_electrodes_number_mean: CCTE's Neural Acute Assay for Mean Number of Electrodes in a Network Burst, Shafer Lab (AID 2284021);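 note: curves fitted for decreases only so hits reduce electrodes per burst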
Activity calls are given as the source filed them. Rule for the calls: active = hit-call score of the fitted dose curve at least 0.9, where 1 is the maximum; inactive = score below 0.9.
Classes to choose from: y for active, n for inactive

Please review the following examples before continuing.
{"MOLECULE": "ClC(Cl)(Cl)c1ccccc1", "CLASS_LABEL": "n"}
{"MOLECULE": "Cc1ccc(N)cc1N", "CLASS_LABEL": "n"}
{"MOLECULE": "COCCOCCO", "CLASS_LABEL": "n"}
{"MOLECULE": "CCCCC(CC)COP(=O)(Oc1ccccc1)Oc1ccccc1 (configuration not stated)", "CLASS_LABEL": "n"}

Exercise: What classification did O=C(O)C1C(C(=O)O)C2(Cl)C(Cl)=C(Cl)C1(Cl)C2(Cl)Cl (configuration not stated) end up with in this test?
Solution: n

Exercise: What classification did CC(C)(C)c1ccccc1OP(=O)(Oc1ccccc1)Oc1ccccc1 end up with in this test?
Solution: y

Exercise: What classification did c1ccc2c(c1)Nc1ccccc1S2 end up with in this test?
Solution: y

Exercise: What classification did COP(=O)(CCC(=O)NCO)OC end up with in this test?
Solution: n

Exercise: What classification did CCOc1ccc(C(C)(C)COCc2cccc(Oc3ccccc3)c2)cc1 end up with in this test?
Solution: n

Exercise: What classification did CCOP(=S)(Oc1ccc([N+](=O)[O-])cc1)c1ccccc1 (configuration not stated) end up with in this test?
Solution: n

Exercise: What classification did CCC1(c2ccccc2)C(=O)N=C(O)NC1=O (configuration not stated) end up with in this test?
Solution: n

Exercise: What classification did ClC1=C(Cl)C2(Cl)C3C(Cl)C(Cl)CC3C1(Cl)C2(Cl)Cl (configuration not stated) end up with in this test?
Solution: n

---

# Read-out: Macrophage colony-stimulating factor (MCSF), CSF1 (gene 1435)
# EXPERIMENT: BSK_hDFCGF_MCSF: BioMAP Diversity Plus: hDFCGF Assay for Macrophage colony-stimulating factor (MCSF) Biomarker Activity (AID 2283060)
# TEST_SETTINGS: primary human foreskin fibroblasts; actives raise or lower the signal
Calls of active or inactive are those of the source. Rule for the calls: active = hit-call score of the fitted dose curve at least 0.9, where 1 is the maximum; inactive = score below 0.9.
Classes to choose from: active, inactive

{"MOLECULE": "CCCCc1ccccc1", "CLASS_LABEL": "inactive"}
{"MOLECULE": "O=[N+]([O-])c1ccccc1", "CLASS_LABEL": "inactive"}
{"MOLECULE": "[N-]=[N+]=[N-]", "CLASS_LABEL": "inactive"}
{"MOLECULE": "Cc1cccc(N)c1", "CLASS_LABEL": "inactive"}
{"MOLECULE": "Nc1ccc(Cl)cc1", "CLASS_LABEL": "inactive"}

Exercise: What classification did CCOP(=S)(OCC)SCSc1ccc(Cl)cc1 end up with in this test?
Solution: active

Exercise: What classification did N#Cc1c(-c2ccc(Cl)cc2)[nH]c(C(F)(F)F)c1Br end up with in this test?
Solution: active

Exercise: What classification did COP(=O)(O)OC end up with in this test?
Solution: inactive

Exercise: What classification did O=C(O)C(F)(F)OC(F)(F)C(F)(F)OC(F)(F)F end up with in this test?
Solution: inactive

Exercise: What classification did CCNc1nc(Cl)nc(NC(C)(C)C)n1 end up with in this test?
Solution: inactive

Exercise: What classification did O=C(O)C(F)(OC(F)(F)C(F)(F)C(F)(F)F)C(F)(F)F (stereo not drawn) end up with in this test?
Solution: inactive

---

# EXPERIMENT: CCTE_Shafer_MEA_acute_per_network_burst_spike_number_mean: CCTE's Neural Acute Assay for Average Number of Spikes in a Network Burst, Shafer Lab (AID 2284019)
Activity calls are given as the source filed them. The calls were made as follows: active = hit-call score of the fitted dose curve at least 0.9, where 1 is the maximum; inactive = score below 0.9.
Classes to choose from: active, inactive

{"COMPOUND": "c1ccc2c(c1)Nc1ccccc1S2", "CLASS_LABEL": "inactive"}
{"COMPOUND": "O=C(O)C1C(C(=O)O)C2(Cl)C(Cl)=C(Cl)C1(Cl)C2(Cl)Cl (configuration not stated)", "CLASS_LABEL": "inactive"}
{"COMPOUND": "ClC(Cl)(Cl)c1ccccc1", "CLASS_LABEL": "inactive"}
{"COMPOUND": "Nc1ccc2ccccc2c1", "CLASS_LABEL": "inactive"}
{"COMPOUND": "CCCCC(CC)COP(=O)(Oc1ccccc1)Oc1ccccc1 (configuration not stated)", "CLASS_LABEL": "inactive"}
{"COMPOUND": "CCOc1ccc(C(C)(C)COCc2cccc(Oc3ccccc3)c2)cc1", "CLASS_LABEL": "inactive"}

Exercise: What classification did ClC1=C(Cl)C2(Cl)C3C(Cl)C(Cl)CC3C1(Cl)C2(Cl)Cl (configuration not stated) end up with in this test?
Solution: active

---

# Read-out: Paternally Expressed 10 (PEG10), PEG10 (gene 23089)
# EXPERIMENT: LTEA_HepaRG_PEG10: Life Technologies and Expression Analysis (LTEA) Assay for Paternally Expressed 10 (PEG10) using HepaRG (AID 2283520)
# TEST_SETTINGS: mRNA level, 48 h; actives raise or lower the signal
Calls of active or inactive are those of the source. Rule for the calls: active = hit-call score of the fitted dose curve at least 0.9, where 1 is the maximum; inactive = score below 0.9.
Classes to choose from: 1.0 = active, 0.0 = inactive

Please review the following examples before continuing.
{"MOLECULE": "O=C(O)C(Cl)Cl", "CLASS_LABEL": 0.0}
{"MOLECULE": "c1ccc2c(c1)Nc1ccccc1S2", "CLASS_LABEL": 1.0}
{"MOLECULE": "CCCCCCCc1ccc(O)cc1", "CLASS_LABEL": 0.0}

Exercise: What classification did ClC(Cl)(Cl)c1ccccc1 end up with in this test?
Solution: 0.0

Exercise: What classification did CCCN(CCC)c1c([N+](=O)[O-])cc(C(C)C)cc1[N+](=O)[O-] end up with in this test?
Solution: 1.0

---

# TEST_TARGET: Estrogen receptor (Homo sapiens)
# EXPERIMENT: NVS_NR_hER: NovaScreen (NVS) Nuclear Receptor Binding Assay for human Estrogen Receptor (ER) (AID 2283348)
Records with an inconclusive call do not appear. Calls of active or inactive are those of the source. The calls were made as follows: active = hit-call score of the fitted dose curve at least 0.9, where 1 is the maximum; inconclusive = response in the unintended direction; inactive = score below 0.9.
Classes to choose from: active, inactive

{"COMPOUND": "CCCN(CCC)c1c([N+](=O)[O-])cc(C(C)C)cc1[N+](=O)[O-]", "CLASS_LABEL": "inactive"}

Exercise: What classification did ClC1=C(Cl)C2(Cl)C3C(Cl)C(Cl)CC3C1(Cl)C2(Cl)Cl (stereo not given) end up with in this test?
Solution: inactive

Exercise: What classification did O=S(=O)(c1ccc(O)cc1)c1ccc(O)cc1 end up with in this test?
Solution: active

Exercise: What classification did CCCCN(CC)C(=O)SCCC end up with in this test?
Solution: active

Exercise: What classification did COCCOCCO end up with in this test?
Solution: inactive

Exercise: What classification did O=P(OCC(Br)CBr)(OCC(Br)CBr)OCC(Br)CBr (stereo not given) end up with in this test?
Solution: inactive

Exercise: What classification did CC(C)Nc1ccc(Nc2ccccc2)cc1 end up with in this test?
Solution: inactive

Exercise: What classification did Nc1ccc(Sc2ccc(N)cc2)cc1 end up with in this test?
Solution: active

Exercise: What classification did [N-]=[N+]=[N-] end up with in this test?
Solution: inactive

Exercise: What classification did CCOP(=S)(OCC)SCn1nnc2ccccc2c1=O end up with in this test?
Solution: inactive

Source: PubChem BioAssay (EPA / NIEHS)
